Catalogue of compounds with associated Emax
test system: co-cultures of human aortic endothelial cells and human mesenchymal stem cells; experiment: In vitro angiogenesis co-culture assay (tube formation); type: cell-based; conditions: Homo sapiens, 72 h; Table 1; three-day exposure; percentage of inhibition compared to DMSO controls; read-out: Angiogenesis Efficacy (converted)

[
  {
    "compound": "O=C1c2c(O)ccc(O)c2C(=O)c2c(NCCNCCO)ccc(NCCNCCO)c21",
    "target_of_assay": "co-cultures of human aortic endothelial cells and human mesenchymal stem cells",
    "Emax": "101%"
  },
  {
    "compound": "CC(=O)Nc1cccc(-n2c(=O)n(C3CC3)c(=O)c3c(Nc4ccc(I)cc4F)n(C)c(=O)c(C)c32)c1",
    "target_of_assay": "co-cultures of human aortic endothelial cells and human mesenchymal stem cells",
    "Emax": "89%"
  },
  {
    "compound": "O=C(Nc1ccc([N+](=O)[O-])cc1Cl)c1cc(Cl)ccc1O [Niclosamide]",
    "target_of_assay": "co-cultures of human aortic endothelial cells and human mesenchymal stem cells",
    "Emax": "87%"
  },
  {
    "compound": "Oc1cccc(-c2nc(N3CCOCC3)c3oc4ncccc4c3n2)c1",
    "target_of_assay": "co-cultures of human aortic endothelial cells and human mesenchymal stem cells",
    "Emax": "80%"
  },
  {
    "compound": "CC[C@@]1(O)C(=O)OCc2c1cc1n(c2=O)Cc2cc3c(CN(C)C)c(O)ccc3nc2-1",
    "target_of_assay": "co-cultures of human aortic endothelial cells and human mesenchymal stem cells",
    "Emax": "80%"
  },
  {
    "compound": "Nc1ncn([C@@H]2O[C@H](CO)[C@@H](O)[C@H]2O)c(=O)n1",
    "target_of_assay": "co-cultures of human aortic endothelial cells and human mesenchymal stem cells",
    "Emax": "80%"
  },
  {
    "compound": "COc1c(C)c2c(c(O)c1C/C=C(\\C)CCC(=O)OCCN1CCOCC1)C(=O)OC2 [Mycophenolate mofetil]",
    "target_of_assay": "co-cultures of human aortic endothelial cells and human mesenchymal stem cells",
    "Emax": "93%"
  },
  {
    "compound": "Cn1cnc2c(F)c(Nc3ccc(Br)cc3Cl)c(C(=O)NOCCO)cc21",
    "target_of_assay": "co-cultures of human aortic endothelial cells and human mesenchymal stem cells",
    "Emax": "92%"
  },
  {
    "compound": "CC[C@@]1(O)C(=O)OCc2c1cc1n(c2=O)Cc2cc3ccccc3nc2-1",
    "target_of_assay": "co-cultures of human aortic endothelial cells and human mesenchymal stem cells",
    "Emax": "134%"
  }
]

* * *

tested on: HIF-1α–NanoLuc; assay: HIF-1α–NanoLuc reporter gene assay (qHTS primary and confirmatory screens); format: cell-based, human; conditions: Homo sapiens; Table S7; confirmatory screen; read-out: HIF-1α–NanoLuc confirmatory IC50
Known IC50 of a selection of molecules
assay_endpoint: IC50 (µM)

[
  {
    "molecule": "c1ccc(CCNc2nc(-c3ccccc3)cs2)cc1 [Fanetizole]",
    "target_of_assay": "HIF-1α–NanoLuc",
    "quantitative_readout": 16.4
  },
  {
    "molecule": "C=CC(=O)Nc1cc2c(Nc3ccc(F)c(Cl)c3)ncnc2cc1OCCCN1CCOCC1 [Canertinib]",
    "target_of_assay": "HIF-1α–NanoLuc",
    "quantitative_readout": 28.8
  },
  {
    "molecule": "O=C1NCN(c2ccccc2)C12CCN(CCCOc1ccc(F)cc1)CC2 [AMI-193]",
    "target_of_assay": "HIF-1α–NanoLuc",
    "quantitative_readout": 12.2
  },
  {
    "molecule": "CCCCC(CC)CNC(=N)NC(=N)NCCCCCCNC(=N)NC(=N)NCC(CC)CCCC (stereo not shown) [Alexidine]",
    "target_of_assay": "HIF-1α–NanoLuc",
    "quantitative_readout": 9.35
  },
  {
    "molecule": "CCOc1ccc(Cc2nccc3cc(OCC)c(OCC)cc23)cc1OCC [Ethaverine]",
    "target_of_assay": "HIF-1α–NanoLuc",
    "quantitative_readout": 9.39
  },
  {
    "molecule": "O=C(Nc1ccc(Cl)cc1)Nc1ccc(Cl)c(C(F)(F)F)c1 [Cloflucarban]",
    "target_of_assay": "HIF-1α–NanoLuc",
    "quantitative_readout": 14.3
  },
  {
    "molecule": "CO[C@H]1C[C@@H]2CC[C@@H](C)[C@@](O)(O2)C(=O)C(=O)N2CCCC[C@H]2C(=O)O[C@H]([C@H](C)C[C@@H]2CC[C@@H](OC(=O)C(C)(CO)CO)[C@H](OC)C2)CC(=O)[C@H](C)/C=C(\\C)[C@@H](O)[C@@H](OC)C(=O)[C@H](C)C[C@H](C)/C=C/C=C/C=C/1C [Temsirolimus]",
    "target_of_assay": "HIF-1α–NanoLuc",
    "quantitative_readout": 34.5
  }
]
